Target: AMP-activated protein kinase, AMPK (Homo sapiens) (UniProt P54646+O43741+P54619+Q9UGJ0+Q9Y478+Q13131+Q9UGI9)
Assay: AMP-dependent Kinase enzyme assay. An in vitro enzyme assay that detects ADP turnover that is directly proportional to AMPK activity. This uses naive AMPK that is activated during the assay with MK-8722
Type: functional
Parameters: scale not given: direction of the effect not stated beside the values
Conditions: 30 µM
In this section we review reported Percent Effect values for a set of compounds.
The response must be a number in % with no trailing unit.

Cc1cnc(N2CCN(C)CC2)nc1-c1ccnn1C	-3.23
CN(C)CC1(O)CCCN(C(=O)CCn2cc(Cl)cn2)C1 (centres undefined)	4.94
CCC(C)Oc1ccc(CNCCNS(C)(=O)=O)cc1Cl (centres undefined)	5
COc1cc(C)c(S(=O)(=O)CC(=O)N(C)C(C)C)cc1OC	5.04
CCN(C)C[C@@H]1CN(C(=O)c2cc(-c3ccc(F)cc3)n[nH]2)C[C@@H]1CO	9.6
CN(CCOc1ccc(C#N)cc1)CC1CCS(=O)(=O)C1 (centres undefined)	7.94
CNC(=O)Cc1ccc(NC(=O)NCc2ncc(C)s2)cc1	-2.7
O=C(NCc1ccnc(OCC2CC2)c1)C1COc2ccccc2O1 (centres undefined)	1.5

Challenge: Give the measured Percent Effect of "CCN1CCC(CC(=O)NCCc2nc(C)cc(C)n2)CC1" .
Response given: 1.66

====

Biological target: AMP-activated protein kinase, AMPK (Homo sapiens) (UniProt P54646+O43741+P54619+Q9UGJ0+Q9Y478+Q13131+Q9UGI9)
Test: AMP-dependent Kinase enzyme assay. An in vitro enzyme assay that detects ADP turnover that is directly proportional to AMPK activity. This uses naive AMPK that is activated during the assay with MK-8722
Assay type: functional
Design: scale not given: direction of the effect not stated beside the values
Details: 30 µM
recorded metric: Percent Effect (%)
The response must be a number in % with no trailing unit.

CS(=O)(=O)NCC1Cc2ccccc2O1 (configuration not stated)	-1.87
O=C(C1CCCOC1)N1CCN(CC(F)(F)F)c2ccccc21 (configuration not stated)	6.14
Cc1nnc(SCCCNc2cc(C3CC3)ncn2)s1	15.2

Kindly consider the entry below.
Challenge: Give the measured Percent Effect of Cc1ccc(CN(C(=O)NCC2CCCO2)C2CC2)o1 (configuration not stated) .
Response given: -2.62

====

Biological target: Chromo domain-containing protein 1 (Saccharomyces cerevisiae (strain ATCC 204508 / S288c) (Baker's yeast))
Assay: ScCHD-1 Enzyme Inhibition Assay; also: in the data most compounds retested in dose-response had high values
Assay type: functional
Set-up: scale not given: direction of the effect not stated beside the values
Conditions: 30 µM
In this section we review reported Percent Effect values for a set of molecules.
The response must be a number in % with no trailing unit.

// below: answered molecules
Cn1nc2c(cc1=O)CN(Cc1nc(C(C)(C)C)no1)CC2	-14.7
CCOc1ncccc1C(=O)N1CCCC(c2nccn2CCOC)C1 (configuration not stated)	2.21
CC(O)CN1CCC(CNCc2ccccc2Br)CC1 (configuration not stated)	-5.01
CN(C)c1cc(C(=O)N2CCCN(Cc3cscn3)CC2)ccn1	-5.32
Nc1nccc(-c2c[nH]nc2C2CCCCC2)n1	-6.8

Challenge: Give the measured Percent Effect of "Cc1ccc(C(=O)NCCNc2ncccc2C#N)c(=O)[nH]1" .
Response given: -7.29

Challenge: Give the measured Percent Effect of c1cnnc(N2CCCC2CNCc2nc(C3CC3)no2)c1 (configuration not stated) .
Response given: 8.01

====

Tested on: Trypanosoma cruzi
Assay: Trypanosoma cruzi phosphomannomutase and mannose-1-phosphate guanylyltransferase assay
Format: functional
Design: scale not given: direction of the effect not stated beside the values
Details: 10 µM
In this section we review reported Percent Effect values for a set of molecules.
The response must be a number in % with no trailing unit.

Challenge: Give the measured Percent Effect of "Nc1nccc(-c2c[nH]nc2C2CCCCC2)n1" .
Response given: -6.83

Challenge: Give the measured Percent Effect of "N#Cc1cccc(S(=O)(=O)NC(=O)COc2ccc3c(c2)CCC3)c1" .
Response given: 6.48

Challenge: Give the measured Percent Effect of O=C(c1cnco1)N1CCCC(Cc2nccs2)C1 (stereo not given) .
Response given: 0.395

Challenge: Give the measured Percent Effect of NC[C@H]1CC[C@H](C(NC(=O)c2ccccn2)c2ccccn2)CC1 (stereo not given in full) .
Response given: -1.58

====

Biological target: AMP-activated protein kinase, AMPK (Homo sapiens) (UniProt P54646+O43741+P54619+Q9UGJ0+Q9Y478+Q13131+Q9UGI9)
Experiment: AMP-dependent Kinase enzyme assay. An in vitro enzyme assay that detects ADP turnover that is directly proportional to AMPK activity. This uses naive AMPK that is activated during the assay with MK-8722
Assay type: functional
Design: scale not given: direction of the effect not stated beside the values
Settings: 30 µM
In this section we review reported Percent Effect values for a set of compounds.
The response must be a number in % with no trailing unit.

Cc1cc(C(=O)N(C)C2CCS(=O)(=O)C2)c2ccc(F)cc2n1 (stereo not drawn)	-7.82
Oc1c(F)cc(CNc2cccc(-c3nnc[nH]3)c2)cc1F	40.3

Challenge: Give the measured Percent Effect of "CCNC(=O)c1ccc(NC(=O)N(C)Cc2cccn2C)c(C)c1" .
Response given: 12.2

====

Target: AMP-activated protein kinase, AMPK (Homo sapiens) (UniProt P54646+O43741+P54619+Q9UGJ0+Q9Y478+Q13131+Q9UGI9)
Experiment: AMP-dependent Kinase enzyme assay. An in vitro enzyme assay that detects ADP turnover that is directly proportional to AMPK activity. This uses naive AMPK that is activated during the assay with MK-8722
Assay type: functional
Parameters: scale not given: direction of the effect not stated beside the values
Conditions: 30 µM
In this section we review reported Percent Effect values for a set of compounds.
The response must be a number in % with no trailing unit.

Cc1nc(N)cc(NCc2csc(N(C)C)n2)n1	-14.5
COc1ccc(Br)c(NC(=O)NCc2ncnn2C)c1	-1.33
Cc1sc2ncnc(N3CCCC3Cn3cccn3)c2c1C (configuration not stated)	3.42
O=C(c1nc(=O)[nH]c2ccccc12)N1CCCC(CC2CC2)(C(=O)O)C1 (configuration not stated)	-0.821

Kindly consider the entry below.
Challenge: Give the measured Percent Effect of CN1CCN(C(=O)CCn2ncc3ccccc32)CC(C(N)=O)C1 (configuration not stated) .
Response given: 7.38

====

Molecular target: Proteasome subunit beta (Trypanosoma cruzi)
Sequence (whole entry): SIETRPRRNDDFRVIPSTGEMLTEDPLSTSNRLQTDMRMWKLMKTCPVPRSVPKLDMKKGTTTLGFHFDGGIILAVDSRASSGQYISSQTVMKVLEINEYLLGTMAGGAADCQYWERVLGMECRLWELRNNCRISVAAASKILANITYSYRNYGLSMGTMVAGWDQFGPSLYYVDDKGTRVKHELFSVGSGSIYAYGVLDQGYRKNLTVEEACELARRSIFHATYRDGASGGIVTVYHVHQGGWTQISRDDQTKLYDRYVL
Test: Trypanosoma cruzi proteasome chymotrypsin-like activity (TcProtChymo) assay. Also: in the data most compounds retested in dose-response had high values.
Assay type: functional
Parameters: scale not given: direction of the effect not stated beside the values
Details: 9.37 µM
In this section we review reported Percent Effect values for a set of molecules.
The response must be a number in % with no trailing unit.

// below: answered molecules
CCc1nc(C2CCCN2C(=O)c2ccoc2C)no1 (centres undefined)	2.3
CN(C)CC1CN(Cc2coc(-c3ccccc3Cl)n2)CCO1 (centres undefined)	10.6
CCc1cc(O)nc(C2CCCN2C(=O)c2cccnc2)n1 (centres undefined)	15.1
CN1CCCn2c(nc(CNC(=O)c3ccsc3)cc2=O)C1	5.56
Cc1occc1CNC(=O)N(CCCO)C1CCc2ccccc21 (centres undefined)	4.33
NCc1cn(-c2ccccc2C(=O)NCc2cccc(Cl)c2)cn1	6.4
CS(=O)(=O)N1CCC[C@]2(C[C@@H](Oc3ncccc3F)CO2)C1	10.3
Cc1ccc(F)cc1S(=O)(=O)NCc1cccnc1N(C)C	14.7
CCn1cc(CN2CCCC(c3[nH]ncc3S(C)(=O)=O)C2)cn1 (centres undefined)	7.55
Cc1occc1C(=O)N1CC[C@@H](N2CCOCC2)[C@@H]1Cc1ccccc1	7.33

Challenge: Give the measured Percent Effect of "CN(C)C(=O)N1C[C@H]2CCC[C@@]2(COc2ccccn2)C1" .
Response given: 10.9

Challenge: Give the measured Percent Effect of "Cc1ccc(C(=O)NCCNc2ncccc2C#N)c(=O)[nH]1" .
Response given: 15.3

====

Target: Protein translocase subunit SecA (Escherichia coli (strain K12)) (UniProt P10408)
Sequence (P10408 whole entry): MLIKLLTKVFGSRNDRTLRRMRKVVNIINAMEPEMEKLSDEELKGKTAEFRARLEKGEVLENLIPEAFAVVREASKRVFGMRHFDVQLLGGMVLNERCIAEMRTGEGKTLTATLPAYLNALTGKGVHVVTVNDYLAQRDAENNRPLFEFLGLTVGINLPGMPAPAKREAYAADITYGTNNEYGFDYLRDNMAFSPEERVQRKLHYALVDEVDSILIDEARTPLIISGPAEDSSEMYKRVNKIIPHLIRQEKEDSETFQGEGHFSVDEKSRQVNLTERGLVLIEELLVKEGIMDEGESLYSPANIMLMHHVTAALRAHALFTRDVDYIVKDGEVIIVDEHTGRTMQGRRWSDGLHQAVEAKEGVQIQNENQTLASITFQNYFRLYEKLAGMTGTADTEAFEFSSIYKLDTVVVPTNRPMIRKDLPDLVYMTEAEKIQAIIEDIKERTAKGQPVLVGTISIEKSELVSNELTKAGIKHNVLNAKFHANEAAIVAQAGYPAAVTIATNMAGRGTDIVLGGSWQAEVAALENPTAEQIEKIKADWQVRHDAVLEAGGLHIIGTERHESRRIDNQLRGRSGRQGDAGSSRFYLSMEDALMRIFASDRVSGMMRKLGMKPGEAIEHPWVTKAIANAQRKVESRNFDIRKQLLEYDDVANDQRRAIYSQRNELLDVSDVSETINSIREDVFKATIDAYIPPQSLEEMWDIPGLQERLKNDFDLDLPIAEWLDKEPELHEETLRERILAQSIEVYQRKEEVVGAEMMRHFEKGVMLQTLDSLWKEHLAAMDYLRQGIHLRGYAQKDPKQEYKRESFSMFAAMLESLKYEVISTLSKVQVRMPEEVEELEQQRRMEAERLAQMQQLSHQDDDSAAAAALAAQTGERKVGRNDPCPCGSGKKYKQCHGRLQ
Test: Assay to Identify E. coli SecA ATPase Inhibitors
Format: functional
Parameters: scale not given: direction of the effect not stated beside the values
Details: 30 µM
Potency and affinity values are given separately.
recorded metric: Percent Effect (%)
The response must be a number in % with no trailing unit.

// below: answered compounds
COCC1CC2(CCN(Cc3cnn(C)c3)CC2)CN1C(C)C (configuration not stated)	-5.94
COCCN1C[C@H]2[C@@H](C1)N(C(=O)c1cccs1)CC[C@H]2OC	-5.76
Cc1ccc(NC(=O)C(C)N2CCCN(c3nccs3)CC2)c(C)c1 (configuration not stated)	-1.1
CC(C)(C)n1ncc2c1NC(=O)CC2c1ccsc1 (configuration not stated)	-1.95
Cc1cccc(CN2CCC3(CCN(c4ccccn4)C3)C2=O)c1 (configuration not stated)	-2.21
Cn1ncc2c1NC(=O)CC2c1ccc(O)cc1 (configuration not stated)	-7.41

Kindly consider the entry below.
Challenge: Give the measured Percent Effect of NC[C@H]1CC[C@H](C(NC(=O)c2ccccc2)c2ccccn2)CC1 (some centres not stated) .
Response given: -0.915
